Entry source: ChEMBL document CHEMBL1250540

Molecular target: Adenosine receptor A3 (Homo sapiens)
Assay: Displacement of [125I]I-AB-MECA from human adenosine A3 receptor expressed CHO cells at 10 uM after 60 mins by gamma counting relative to NECA
Format: cell-based
value type: inhibition (%)

Below: 3 molecules and their reported inhibition.
- O[C@@H]1[C@H](O)CS[C@H]1Cn1cnc2c(NCc3cccc(I)c3)ncnc21: 13.9
- O[C@@H]1[C@H](O)CS[C@H]1Cn1cnc2c(NCc3cccc(F)c3)ncnc21: 8.7
- O[C@@H]1[C@H](O)CS[C@H]1Cn1cnc2c(NCc3cccc(Br)c3)nc(Cl)nc21: 21

a = O[C@@H]1[C@H](O)CS[C@H]1Cn1cnc2c(NCc3cccc(Br)c3)ncnc21
b = O[C@@H]1[C@H](O)CS[C@H]1Cn1cnc2c(NCc3cccc(I)c3)nc(Cl)nc21
c = O[C@@H]1[C@H](O)CS[C@H]1Cn1cnc2c(NCc3cccc(F)c3)nc(Cl)nc21
[Q] // sort entries: inhibition, high to low Give the labels in the order specified.
[A] c, b, a

a = O[C@@H]1[C@H](O)CS[C@H]1Cn1cnc2c(NCc3cccc(Cl)c3)nc(Cl)nc21
b = O[C@@H]1[C@H](O)CS[C@H]1Cn1cnc2c(NCc3cccc(Cl)c3)ncnc21
[Q] Could you please tell me which of these two has the higher inhibition: a or b ? Answer by quoting the chosen item's label.
[A] a

----------
Target: Adenosine receptor A2a (Homo sapiens)
Assay: Displacement of [3H]CGS 21680 from human adenosine A2A receptor expressed HEK293 cells at 10 uM after 60 mins by gamma counting relative to NECA
Type: cell-based
value type: inhibition (%)

• O[C@@H]1[C@H](O)CS[C@H]1Cn1cnc2c(NCc3cccc(F)c3)ncnc21 = 14
• O[C@@H]1[C@H](O)CS[C@H]1Cn1cnc2c(NCc3cccc(Cl)c3)nc(Cl)nc21 = 11
• O[C@@H]1[C@H](O)CS[C@H]1Cn1cnc2c(NCc3cccc(Br)c3)nc(Cl)nc21 = 2
• O[C@@H]1[C@H](O)CS[C@H]1Cn1cnc2c(NCc3cccc(Cl)c3)ncnc21 = 13
• O[C@@H]1[C@H](O)CS[C@H]1Cn1cnc2c(NCc3cccc(I)c3)nc(Cl)nc21 = 18.4

1 = O[C@@H]1[C@H](O)CS[C@H]1Cn1cnc2c(NCc3cccc(Br)c3)ncnc21
2 = O[C@@H]1[C@H](O)CS[C@H]1Cn1cnc2c(NCc3cccc(F)c3)nc(Cl)nc21
[Q] Please compare: 1 and 2 . Report which one has the smaller inhibition value. Bench note: the answer is the label of the chosen record.
[A] 2
(2: 12%, 1: 25.8%)

----------
Biological target: Adenosine receptor A1 (Homo sapiens)
Assay: Displacement of [3H]R-PIA from human adenosine A1 receptor expressed CHO cells at 10 uM after 60 mins by gamma counting relative to NECA
Type: cell-based
value type: inhibition (%)

1 = O[C@@H]1[C@H](O)CS[C@H]1Cn1cnc2c(NCc3cccc(Br)c3)nc(Cl)nc21
2 = O[C@@H]1[C@H](O)CS[C@H]1Cn1cnc2c(NCc3cccc(I)c3)nc(Cl)nc21
3 = O[C@@H]1[C@H](O)CS[C@H]1Cn1cnc2c(NCc3cccc(Cl)c3)nc(Cl)nc21
4 = O[C@@H]1[C@H](O)CS[C@H]1Cn1cnc2c(NCc3cccc(Br)c3)ncnc21
5 = O[C@@H]1[C@H](O)CS[C@H]1Cn1cnc2c(NCc3cccc(I)c3)ncnc21
[Q] Put the molecules in ascending order of inhibition. Your reply should list the labels following the order given in the request.
[A] 3, 4, 5, 2, 1

A = O[C@@H]1[C@H](O)CS[C@H]1Cn1cnc2c(NCc3cccc(Cl)c3)ncnc21
B = O[C@@H]1[C@H](O)CS[C@H]1Cn1cnc2c(NCc3cccc(F)c3)ncnc21
C = O[C@@H]1[C@H](O)CS[C@H]1Cn1cnc2c(NCc3cccc(F)c3)nc(Cl)nc21
[Q] Exam item: list the entries in increasing order of inhibition. Give the order by naming the labels one after another as requested.
[A] B, A, C
